Origin of the recorded values: patent US20110165066A1

Target: T1, human IL-13 wild type (human, UniProt P35225 35-146)
T1 construct: also called h IL-13; h IL-13 wt
T1 sequence (P35225 other isoform, or with tags, fused parts or gaps limits assumed): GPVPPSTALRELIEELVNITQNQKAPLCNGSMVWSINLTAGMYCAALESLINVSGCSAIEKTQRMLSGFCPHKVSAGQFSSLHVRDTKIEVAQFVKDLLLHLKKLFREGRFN
Assay: SPR (Biacore)
Kindly supply the reported kon values for the records listed here.
Please respond with the number in M⁻¹ s⁻¹ and leave the unit unwritten.

If you can, please state the reported kon value of 5G1.1 (antibody, human IgG1, V domains shown, Humanized) VH: EVQLVQSGAEVKKPGASVKVSCKASGYTFTTYGVSWVRQAPGQGLEWIGEIYPGNYNTYYNEKFRGKATMTTDTSTSTAYMELRSLRSDDTAVYYCSRWRTSYFSDYGYFDYWGQGTTVTVSS VL: DVVMTQSPLSLPVTLGQPASISCRSSQSLVHSHGNTYLHWYQQRPGQSPRLLIYTVSNRFSGVPDRFSGSGSGTDFTLKISRVEAEDVGVYYCSQSTHVPYTFGGGTKVEIKR . 786000

Entry to check: 5G1-Chim (antibody, V domains shown, also called chimeric 5G1) VH: QVQLQQSGAELARPGTSVKLSCKASGYTFTTYGVSWVKQRTGQGLEWIGEIYPGNYNTYYNEKFRGKATLTADKSSSTAYMQLSSLTSEDSAVYFCSRWRTSYFSDYGYFDYWGQGTTLTVSS VL: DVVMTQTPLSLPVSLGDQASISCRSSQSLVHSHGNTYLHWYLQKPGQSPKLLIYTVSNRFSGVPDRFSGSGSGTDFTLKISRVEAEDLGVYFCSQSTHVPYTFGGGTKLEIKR 915000

Same thing, different binder: 5G1.5 (antibody, human IgG1, V domains shown, Humanized; The heavy chain row is printed 'VN 5G1.5') VH: QVQLVQSGAEVKKPGASVKVSCKASGYTFTTYGVSWVRQAPGQGLEWIGEIYPGNYNTYYNEKFRGKATLTADKSTSTAYMELSSLRSEDTAVYYCSRWRTSYFSDYGYFDYWGQGTLVTVSS VL: DIVMTQSPLSLPVTPGQPASISCRSSQSLVHSHGNTYLHWYLQKPGQSPKLLIYTVSNRFSGVPDRFSGSGSGTDFTLKISRVEAEDVGVYYCSQSTHVPYTFGGGTKVEIK 869000

Try this binder next: 13C5-Chim (antibody, human IgG1, V domains shown, also called chimeric 13C5) VH: QVTLKESGPGILQPSQTLSLTCSFSGFSLSTSDMGVDWIRQPSGKGLEWLAHIWWDDVKRYNPALKSRLTISKDTSSSQVFLMLASVDTADTATYYCARTVSSGYIYYAMDYWGQGTSVTVSS VL: DIQMTQTASSLSASLGDRVTISCRASQDIRNYLNWYQRKPDGTVKLLIFYTSKLHSGVPSRFSGSGSGTDYSLTIRNLEQEDIATYFCQQGNTLPLTFGGGTKLEIKR 1.7e+06

// same read-out, input: 5G1.2 (antibody, human IgG1, V domains shown, Humanized) VH: EVQLVQSGAEVKKPGASVKVSCKASGYTFTTYGVSWVRQAPGQGLEWIGEIYPGNYNTYYNEKFRGKATLTADKSTSTAYMELSSLRSDDTAVYFCSRWRTSYFSDYGYFDYWGQGTTVTVSS VL: DVVMTQSPLSLPVTLGQPASISCRSSQSLVHSHGNTYLHWYQQRPGQSPRLLIYTVSNRFSGVPDRFSGSGSGTDFTLKISRVEAEDVGVYFCSQSTHVPYTFGGGTKVEIKR 835000

Further, for 13C5.5 (antibody, human IgG1, V domains shown, Humanized; The light chain row is printed 'VL 1305.5'; also called humanized 13C5; recombinant humanized antibody 13C5.5) VH: EVTLRESGPGLVKPTQTLTLTCTLYGFSLSTSDMGVDWIRQPPGKGLEWLAHIWWDDVKRYNPALKSRLTISKDTSKNQVVLKLTSVDPVDTATYYCARTVSSGYIYYAMDYWGQGTLVTVSS VL: DIQMTQSPSSLSASVGDRVTISCRASQDIRNYLNWYQQKPGKAPKLLIFYTSKLHSGVPSRFSGSGSGTDYTLTISSLQPEDIATYYCQQGNTLPLTFGGGTKVEIK ? 2.51e+06

Same thing, different binder: 13C5.2 (antibody, human IgG1, V domains shown, Humanized) VH: EVTLKESGPVLVKPTETLTLTCTFSGFSLSTSDMGVDWIRQPPGKALEWLAHIWWDDVKRYNPALKSRLTISKDTSKSQVVLTMTNMDPVDTATYYCARTVSSGYIYYAMDYWGQGTTVTVSS VL: DIQMTQTPSSLSASVGDRVTISCRASQDIRNYLNWYQRKPGKVVKLLIFYTSKLHSGVPSRFSGSGSGTDYTLTISSLQPEDVATYFCQQGNTLPLTFGGGTKVEIKR 1.26e+06

Please give the result for 13C5.1 (antibody, human IgG1, V domains shown, Humanized) VH: EVTLKESGPVLVKPTETLTLTCTFSGFSLSTSDMGVDWIRQPPGKALEWLAHIWWDDVKRYNPALKSRLTISKDTSKSQVVLTMTNMDPVDTATYYCARTVSSGYIYYAMDYWGQGTTVTVSS VL: DIQMTQSPSSLSASVGDRVTITCRASQDIRNYLNWYQRKPGKVVKLLIYYTSKLHSGVPSRFSGSGSGTDFTLTISSLQPEDVATYYCQQGNTLPLTFGGGTKVEIKR too. 668000
